# target_of_assay: mGluR 1 (Rattus norvegicus)
# Sequence (P23385 19-1199): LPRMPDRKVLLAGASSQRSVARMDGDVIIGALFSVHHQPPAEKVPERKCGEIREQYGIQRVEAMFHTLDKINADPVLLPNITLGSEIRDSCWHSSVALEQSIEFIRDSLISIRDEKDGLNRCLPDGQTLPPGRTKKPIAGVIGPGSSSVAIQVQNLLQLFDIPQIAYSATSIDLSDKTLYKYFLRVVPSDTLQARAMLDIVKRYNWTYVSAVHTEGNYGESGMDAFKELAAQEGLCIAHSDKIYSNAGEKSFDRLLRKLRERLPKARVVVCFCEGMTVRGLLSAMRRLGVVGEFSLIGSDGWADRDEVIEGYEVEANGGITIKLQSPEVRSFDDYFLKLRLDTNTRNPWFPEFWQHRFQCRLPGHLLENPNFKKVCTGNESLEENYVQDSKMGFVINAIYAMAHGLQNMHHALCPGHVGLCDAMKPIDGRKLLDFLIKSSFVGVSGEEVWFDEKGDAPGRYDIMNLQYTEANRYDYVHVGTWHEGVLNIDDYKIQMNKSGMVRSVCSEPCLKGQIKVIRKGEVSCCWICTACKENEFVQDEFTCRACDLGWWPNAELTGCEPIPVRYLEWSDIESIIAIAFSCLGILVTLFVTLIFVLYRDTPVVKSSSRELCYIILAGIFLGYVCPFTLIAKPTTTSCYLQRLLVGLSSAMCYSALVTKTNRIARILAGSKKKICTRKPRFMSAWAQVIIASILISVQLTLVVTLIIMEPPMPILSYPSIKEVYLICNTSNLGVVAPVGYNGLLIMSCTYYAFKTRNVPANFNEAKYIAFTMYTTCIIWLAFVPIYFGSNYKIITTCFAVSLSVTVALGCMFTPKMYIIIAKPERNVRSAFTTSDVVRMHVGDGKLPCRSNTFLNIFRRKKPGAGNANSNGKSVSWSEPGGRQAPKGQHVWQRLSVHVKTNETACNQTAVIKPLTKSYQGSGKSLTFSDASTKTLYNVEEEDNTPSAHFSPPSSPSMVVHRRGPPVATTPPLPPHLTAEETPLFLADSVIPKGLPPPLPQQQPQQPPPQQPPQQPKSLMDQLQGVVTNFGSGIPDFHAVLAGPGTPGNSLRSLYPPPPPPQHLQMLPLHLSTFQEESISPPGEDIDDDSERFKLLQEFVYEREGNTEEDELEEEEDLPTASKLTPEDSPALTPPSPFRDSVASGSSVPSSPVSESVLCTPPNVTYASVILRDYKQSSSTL
pIC50: −log10 of the molar value. Where a name gives a salt, the structure may show the parent alone.
Returns Met if the recorded pIC50 is greater than or equal to 8, and Not met otherwise.

>>> print(df.to_string())
                                   molecule  assigned_class
0  CC(C)(C)CNC(=O)c1cn2c(nc3ccc(CNCC4CCOCC4)cc32)s1 [Example 28, dihydrochloride]         Not met
1  CN(CC(C)(C)C)C(=O)c1cn2c(nc3ccc(CNC[C@@H]4CCCO4)cc32)s1 [Example 11, Dihydrochloride]             Met

-- ask Hi, just wondering whether CN(CC1OCCO1)C(=O)c1cn2c(nc3ccc(CNCC4CCOCC4)cc32)s1 [Example 39, dihydrochloride] shows pIC50 of 8 or higher.
-- reply Not met

* * *

Structures can show the parent of a compound that is named as a salt.
IC50, mGluR 1 (Rattus norvegicus, UniProt P23385): measured values
Number in nM, nothing else.

>>> print(df.to_string())
                                   compound  recorded_measurement
0  CN(CC(C)(C)C)C(=O)c1cn2c(nc3ccc(CNCC4(C)COC4)cc32)s1                     9
1  CN(CC1OCCO1)C(=O)c1cn2c(nc3ccc(CNCC4OCCO4)cc32)s1 [Example 37, dihydrochloride]                     8
2  CC(C)(C)CNC(=O)c1cn2c(nc3ccc(CNCC4OCCO4)cc32)s1 [Example 26, dihydrochloride]                     8

--- query ---
-- ask I'd like to know its IC50. The compound in question is CC(C)(C)CNC(=O)c1cn2c(nc3ccc(CNC[C@H]4CCCO4)cc32)s1 [Example 24, dihydrochloride]
-- reply 11
